Sourced from patent US20240043534A1

- ASSAY_TARGET: Fab^H (Herceptin Fab scaffold with wt human kappa Lc; Lc aa 123-127 EQLKS)
- ASSAY_COMMENT: SPR (preliminary results), Protein G variant against Fab scaffold
RECORDED_METRIC: Kd (nM)

[[record]]
binder = "Protein G D (designed binder) TPAVTTYKLVINGRTLSGYTTTTAVDAATAEKVFKQIDMVSSVDGEWTYDDATKTFTVTEKPEKL"
recorded_metric = "Kd"
measured_number = 15

